- PROCEDURE DETAILS: Selectivity index, ratio of CC50 for HFF cells to EC50 for bloodstream trypomastigote stage of wild-type Trypanosoma brucei brucei Lister 427
- Type: toxicity
- CONDITION SUMMARY: human, read-out: Ratio CC50/EC50
// values below are reported selectivity ratio
READOUT NAME: selectivity ratio

>>> recorded_value("Cc1cc(O)ccc1C(=O)OCCCCCCCCCCCCCCOC=O")
"> 48"
>>> recorded_value("Cc1cc(O)cc(O)c1C(=O)OCCCCCCCCCCCCCC[P+](c1ccccc1)(c1ccccc1)c1ccccc1.[Br-]")
"> 125000"
>>> recorded_value("O=COCCCCCCCCCCCCCCOc1ccc(C=O)c(O)c1")
"> 52"
>>> recorded_value("Cc1cc(O)cc(O)c1C(=O)OCCCCCCCCCCCCCCBr")
"> 13"
>>> recorded_value("O=C(OCCCCCCCCCCCCCCBr)c1ccc(O)cc1F")
"> 13"
>>> recorded_value("O=C(OCCCCCCCCCCCCBr)c1ccc(O)cc1O")
"> 27"
